All values here come from PubChem BioAssay (NCI).

TGI values, listed per item
- Test system: HL-60(TB) leukemia
- Procedure summary: NCI tumour cell line growth inhibition, 48 h

Below, each entry is followed by its recorded TGI result.
> print(dat)
                                   molecule  obs.value
1  C=C(C)C1CCC2(C(=O)O)CCC3(C)C(CCC4C5(C)CCC(O)C(C)(C)C5CCC43C)C12 (configuration not stated)    10.5 µM
2  O=C(Nc1ccc(Cl)cc1)c1cc2ccccc2cc1OP(=O)(O)O   > 100 µM
3  COc1cc(/C=C/c2ccc(S(N)(=O)=O)cc2)cc(OC)c1    42.6 µM

Please report the measured TGI for "COc1cc(=O)oc(/C=C/CO)c1C"
> 100 µM

Look up and report measured TGI for this entry: "Clc1ccc(Nc2ncnc3c2sc2ncccc23)c(Cl)c1"
> 100 µM

Tell me its TGI given "Cc1sc2nc3n(c(=O)c2c1C)N=C(c1ccccc1)CS3" as the entry.
> 100 µM

Item "Cc1cc(C)c(C2=NO[C@@H]3C(=O)N(c4ccc(Cc5ccc(N6C(=O)[C@H]7C(c8c(C)cc(C)cc8C)=NO[C@H]7C6=O)cc5)cc4)C(=O)[C@H]23)c(C)c1" : provide TGI
> 100 µM

###

- Test system: MOLT-4 leukemia
- Procedure summary: NCI tumour cell line growth inhibition, 48 h
Measurement name: TGI

> print(dat)
                                   compound    system.tested  measurement.name  obs.value
1  COc1ccc(OC)c(-c2cc(=O)c3cc4c(cc3[nH]2)OCO4)c1  MOLT-4 leukemia               TGI  > 84.9 µM
2              Cc1ccc(S(=O)(=O)NCCCSCCO)cc1  MOLT-4 leukemia               TGI   > 100 µM
3  C=C1CCC2(C(C)=O)COC1(C)O2 (configuration not stated)  MOLT-4 leukemia               TGI   > 100 µM

State, in one line, measured TGI of "CCSc1[nH]c(NC(=NC(C)C)NC(=O)c2ccccc2)c(C(N)=O)c1C(N)=O"
> 10 µM

Tell me its TGI given "COc1cc(O)c2c(=O)c(OC)c(-c3ccc(OC)c(OC)c3)oc2c1.[Sn]" as the entry.
> 100 µM

State its TGI for this compound: "N/C(=N\C(N)=N\c1nc2ccccc2s1)c1ccnc(Br)c1"
> 100 µM

For the compound O=C1C=CC(=O)[C@H]2C3C=CC(C4C3C3(Cl)C(Cl)=C(Cl)[C@]4(Cl)C3(Cl)Cl)[C@@H]12 (some centres not stated) , report TGI.
36 µM

###

- Test system: HL-60(TB) leukemia
- Procedure summary: NCI tumour cell line growth inhibition, 48 h
Measurement name: TGI

Worked examples, 5 compounds total:
> print(dat)
                               input.smiles  obs.value
1  Clc1ccc(Nc2nnc(CNc3ccc(-c4nnc(Nc5ccc(Cl)cc5)o4)cc3)o2)cc1   > 100 µM
2  CCN(CC)CCNC(=O)C(Cl)=C1C(Cl)=C(Cl)C(Cl)=C1Cl    7.06 µM
3  O=C(O)c1c[nH]c2c(ccc3[nH]cc(C(=O)O)c(=O)c32)c1=O   > 100 µM
4                 N/C(=N/N=C/c1cccc(F)c1)NO    93.5 µM
5  CN1CCN(Cn2nc(-c3cc(F)c(Cl)cc3Cl)oc2=S)CC1   > 100 µM

Moving on to another compound below.
Return TGI for the following compound: "COC(=O)[C@H](C)[C@@H]1CC[C@](C)(CCC2=C(C)CCCC2(C)C)OO1"
> 25 µM

###

- Test system: SW-620 colon
- Procedure summary: NCI tumour cell line growth inhibition, 48 h
# TGI annotations

Below are worked cases with known answers.
> print(dat)
                                   compound  obs.value
1  COc1ccc2c(c1)C(=O)c1c-2c(OCCN2CCCCC2)nc2ccc(OC)cc12    2.19 µM
2  C[C@]12CCC(=O)C=C1CC[C@@H]1C2CC[C@@]2(C)C1CC[C@@H]2OC(=O)C12OC1CCC2=O (stereo partly specified)    32.1 µM
3  O=C1NC2OC(CO)C(O)C(O)C2O1 (stereo unspecified)   > 100 µM
4  O=C(NCCC1CN(S(=O)(=O)C(F)(F)F)c2ccccc21)OCc1ccccc1 (stereo unspecified)   > 100 µM
5  O=C(c1ccccc1)c1c2n(c3c1cc(O)c1ccccc13)CCN2    14.8 µM

Identify measured TGI associated with COc1cc(/C=C2\CC3C4CCC5=CC(=O)CC[C@]5(C)C4CC[C@]3(C)C2=O)ccc1OCCN1CCCCC1 (stereo partly specified)
11.7 µM

Give the value of TGI reported for the following: COC(=O)CN(CC1O[C@@H]2OC(C)(C)O[C@@H]2C1NC(C)=O)C(=O)OCc1ccccc1 (stereo partly specified)
> 100 µM

Identify TGI associated with the compound "COc1c(C)c(C/C=C(\C)CCCCO)c(OC)c2ccccc12"
> 100 µM

For the compound "O=C(O)c1ccccc1C1c2ccc(Cl)cc2Oc2cc(Cl)ccc21" , give its measured TGI value.
> 100 µM

Give the measured TGI for "COc1c(OC)c(OC)c(-c2cc(=O)c3c(OC)c(OC)c(OC)c(OC)c3o2)c(OC)c1OC"
> 100 µM

###

- Test system: IGROV1 ovarian
- Procedure summary: NCI tumour cell line growth inhibition, 48 h
Form field: TGI (one value per entry).

Worked cases, answers included:
> print(dat)
                                   molecule   system.tested  obs.value
1  COC(=O)[C@@H](NC(=O)c1ccc(CNC(=O)/C(C)=C/c2ccccc2)cc1)C(C)C  IGROV1 ovarian   > 100 µM
2  CC(=O)N1CCN(CCCCN2c3ccccc3Sc3cc(N=[N+]=[N-])ccc32)CC1  IGROV1 ovarian    29.1 µM
3  CCSc1[nH]c(NC(=NC(C)C)NC(=O)c2ccccc2)c(C(N)=O)c1C(N)=O  IGROV1 ovarian    > 10 µM
4  COc1cc(C(=O)N(C(=O)N2CCCCC2)c2ccccc2)cc(OC)c1OC  IGROV1 ovarian   > 100 µM
5  COC(=O)CN(CC1O[C@@H]2OC(C)(C)O[C@@H]2C1NC(C)=O)C(=O)OCc1ccccc1 (stereo partly drawn)  IGROV1 ovarian   > 100 µM

Supply TGI value. Item: "O=c1[nH]c(-c2ccc(Cl)cc2)cc2ccsc12"
> 100 µM

Identify measured TGI associated with "COc1cc2oc(-c3ccc(O)cc3)cc(=O)c2c(OC)c1O"
> 100 µM

Complete the entry with TGI for NC(CSC1(c2ccc(Cl)cc2)c2ccccc2-c2ccccc21)C(=O)O (stereo not drawn)
29.4 µM

Supply measured TGI of CN(CC1NCCCC1O)C12CC3CC(CC(C3)C1)C2 (stereo not drawn) in your reply.
> 100 µM

Output TGI of "CCOC(=O)Nc1cc(-c2ccc(C)c(NS(C)(=O)=O)c2)nn2c(C)nnc12"
8.17 µM

For the molecule "COc1cccc(/C=C2\CCc3ccccc3C2=O)c1" , give its reported TGI.
35 µM

Provide measured TGI value, entry: COc1cc(C2c3cc4c(cc3OC(NNc3ccccc3)C2C)OCO4)cc(OC)c1O (stereo not drawn)
24.6 µM

Answer with the recorded TGI for the molecule listed here: O=C1c2ccccc2C(=O)c2c(NCC3CO3)cccc21 (stereo not drawn)
> 60.3 µM

For the molecule "CN1CCN(Cn2nc(-c3cc(F)c(Cl)cc3Cl)oc2=S)CC1" , give its reported TGI.
> 100 µM

###

- Tested on: NCI-H23 lung
- Procedure summary: NCI tumour cell line growth inhibition, 48 h
Below: a set of entries, each annotated with reported TGI.

> print(dat)
                                   molecule  measurement.name  obs.value
1               CON(C(=O)OC(C)(C)C)c1ccccc1               TGI   > 100 µM
2  CC1(C)OC2[C@@H](CO[C@@]3([C@H]4OC(C)(C)O[C@@H]4CO)OC(C)(C)O[C@@H]23)O1 (stereo partly drawn)               TGI   > 100 µM
3   NNC(=S)NN/C=C(\C=Nc1ccccc1)[N+](=O)[O-]               TGI   > 100 µM

Provide measured TGI value, entry: "C=CNC(=S)n1nc(-c2ccccc2NC(=O)C(F)(F)F)c(=O)n(C(=S)NC=C)c1=S"
> 100 µM

Find the measured TGI of "c1ccc(Sc2nc(Sc3ccccc3)nc(Sc3ccccc3)n2)cc1" and report it.
> 100 µM

Specify TGI for "COc1ccc(/C=C(\C2=NC(=O)CS2)c2nc3ccccc3[nH]2)cc1" and stop.
> 100 µM

Quick one: give measured TGI for "CS(=O)(=O)c1ccc(-c2cnc(NCc3ccco3)n3cnnc23)cc1"
> 100 µM

Specify TGI for "O=C1C(=O)N(C23CC4CC(CC(C4)C2)C3)C(=S)N1c1ccccc1" and stop.
> 100 µM

Consider the molecule COc1cc(/C=C/C2=NN(c3cccc(S(=O)(=O)O)c3)C3(C2)SCC(=O)N3c2nc3ccccc3s2)cc(OC)c1OC (stereo not drawn) and give its recorded TGI.
> 100 µM
